PROTOCOL DESCRIPTION: Clinical trial on omeprazole-gliclazide interaction in healthy volunteers, CYP2C19 NM/RM/UM
Assay type: in vivo, human
MEASUREMENT SETUP: male, human, serum, oral, 40 mg, gliclazide 40 mg tablet, current trial, omeprazole phase; geometric mean (95% CI); read-out: AUC0–24, observed
MEASURE NAME: AUC(0-t) (ng·h/mL)
Answer with a number only, understood to be in ng·h/mL.

What value of measured AUC(0-t) is listed for Cc1ccc(S(=O)(=O)NC(=O)NN2CC3CCCC3C2)cc1 (stereo not shown) [gliclazide] ?
3730

----------
PROTOCOL DESCRIPTION: Clinical trial on omeprazole-gliclazide interaction in healthy volunteers, CYP2C19 NM/RM/UM
Assay type: in vivo, human
MEASUREMENT SETUP: male, human, serum, oral, 40 mg, gliclazide 40 mg tablet, current trial, placebo phase; geometric mean (95% CI); read-out: AUC0–24, observed
MEASURE NAME: AUC(0-t) (ng·h/mL)
Answer with a number only, understood to be in ng·h/mL.

What value of measured AUC(0-t) is listed for Cc1ccc(S(=O)(=O)NC(=O)NN2CC3CCCC3C2)cc1 (stereo not shown) [gliclazide] ?
3290

Provenance of the data: paper PMC8147656
